- Tested on: Streptococcus sp. 'group A'
- METHOD_NOTES: Streptococcus pyogenes SK(-)GAS viability under kanamycin – luminescence, BacTiterGlo, confirmation, counter-screen for streptokinase expression inhibitor project, dose response (AID 1900)
- Assay type: functional, organism-based
Active and inactive are the calls of the source.
READOUT_NAME: EC50

1. Cc1ccc(C(=O)NNC(=S)NC(=O)c2ccc(Cl)cc2Cl)cc1: 196 nM (active)
2. COc1ccc2oc(C(=O)OCC(=O)NC3(C#N)CCCC3)c(C)c2c1: 57900 nM (active)
3. Cc1cccc(/C=N/NC(=O)c2ccccc2OCc2cccc(Br)c2)n1: 11000 nM (active)
4. O=C(N/N=C/c1ccc([N+](=O)[O-])o1)c1cn(-c2ccccc2)nc1-c1ccc(F)cc1: 841 nM (active)
5. Cc1ccc(C2C(C(=O)c3cc4ccccc4o3)=C(O)C(=O)N2c2cc(C)on2)cc1 (stereo not given): 2280 nM (active)

====

- SYSTEM_NAME: 5-hydroxytryptamine receptor 2A (Mus musculus, UniProt P35363);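 also: CHO-K1 cells with tagged receptor and beta-arrestin; agonist potency measured as compound-induced activation of the receptor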
- Sequence (P35363 whole entry): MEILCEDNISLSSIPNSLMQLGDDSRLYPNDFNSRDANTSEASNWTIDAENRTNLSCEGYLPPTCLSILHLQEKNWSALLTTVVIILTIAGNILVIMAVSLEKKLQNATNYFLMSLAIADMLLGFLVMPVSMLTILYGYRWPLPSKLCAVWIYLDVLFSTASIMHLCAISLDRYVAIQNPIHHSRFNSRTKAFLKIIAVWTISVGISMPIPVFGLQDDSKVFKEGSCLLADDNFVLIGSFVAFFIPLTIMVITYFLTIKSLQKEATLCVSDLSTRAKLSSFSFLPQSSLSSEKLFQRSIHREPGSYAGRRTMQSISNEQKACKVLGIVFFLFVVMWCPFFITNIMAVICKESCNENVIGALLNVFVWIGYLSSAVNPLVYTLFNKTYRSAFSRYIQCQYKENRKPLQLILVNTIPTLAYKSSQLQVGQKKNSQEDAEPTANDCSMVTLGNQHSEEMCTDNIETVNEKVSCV
- Format: functional, cell-based
Calls of active or inactive are those of the source.
Known EC50 of a selection of compounds
READOUT_NAME: EC50

1. O=C(c1cccs1)N1CCN(Cc2ccccc2)CC1: 1020 nM (active)
2. CCCN(CCC)C1CCc2cccc(O)c2C1 (centres undefined): 2300 nM (active)
3. CC(C(=O)O)c1ccc(C(=O)c2cccs2)cc1 (centres undefined) [SUPROFEN]: 5340 nM (active)
4. CCCCN(CC)CCCNC(=O)CC1Oc2ccccc2NC1=O (centres undefined): 3300 nM (active)

====

- SYSTEM_NAME: UniProt:Q9HC16
- METHOD_NOTES: Dose Response confirmation of small molecule APOBEC3G DNA Deaminase Inhibitors via a fluorescence-based single-stranded DNA deaminase assay. [Related pubchem assays (depositor defined):AID493012, AID493028]
- Assay type: functional
Activity calls are given as the source filed them.
READOUT_NAME: IC50

1. Sc1nnc(-c2cccnc2)n1/N=C/c1cccs1: 2.75 µM (active)
2. COCCCn1c(S)nnc1-c1ccc(Cl)cc1: 4.57 µM (active)
3. O=C(O)c1ccc(-n2c(-c3ccc(Br)cc3)n[nH]c2=S)cc1: 9.1 µM (active)
4. O=C(Nc1cc(S(=O)(=O)N2CCOCC2)ccc1N1CCCCC1)c1ccc(Cl)cc1: 50.5 µM (active)

====

- SYSTEM_NAME: Estrogen receptor beta (Homo sapiens);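 also: recombinant ER-beta bound to coactivator SRC1 peptide in presence of estradiol agonist; inhibitors block coactivator peptide binding and lower the FRET signal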
- Sequence (Q92731 whole entry): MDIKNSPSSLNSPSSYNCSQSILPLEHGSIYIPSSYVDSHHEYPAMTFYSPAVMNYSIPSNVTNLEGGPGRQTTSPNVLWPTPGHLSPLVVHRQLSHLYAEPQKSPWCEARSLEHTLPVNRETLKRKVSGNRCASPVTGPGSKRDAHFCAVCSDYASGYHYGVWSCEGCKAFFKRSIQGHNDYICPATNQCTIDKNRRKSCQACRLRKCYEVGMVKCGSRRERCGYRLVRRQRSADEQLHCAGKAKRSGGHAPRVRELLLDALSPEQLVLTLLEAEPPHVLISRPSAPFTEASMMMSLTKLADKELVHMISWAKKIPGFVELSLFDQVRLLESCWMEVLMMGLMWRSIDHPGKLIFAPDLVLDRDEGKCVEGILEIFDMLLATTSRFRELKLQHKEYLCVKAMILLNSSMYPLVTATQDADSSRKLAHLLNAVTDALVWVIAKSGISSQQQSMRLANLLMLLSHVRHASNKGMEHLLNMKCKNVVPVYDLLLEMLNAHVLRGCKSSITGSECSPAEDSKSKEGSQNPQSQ
Calls of active or inactive are those of the source.
READOUT_NAME: IC50

1) CC(C)(C)c1nnc2sc(SC/C(O)=C(\C#N)c3nc4ccccc4[nH]3)nn2c1=O: 4 µM (active)
2) CCOC(=O)CN1CC23C=CC(O2)C(C(=O)Nc2cc(OC)ccc2OC)C3C1=O (configuration not stated): > 50 µM (not active)
3) Cc1c(C(=O)OCc2ccccc2)[nH]c2c1C(=O)CC(c1ccco1)C2 (configuration not stated): 15.1 µM (active)
4) O=C(Cc1cccs1)Nc1ccc(-c2nnn(CC(=O)N3CCOCC3)n2)cc1: 2.92 µM (active)
5) CCCNCC1COc2ccccc2O1 (configuration not stated): 4.1 µM (active)
6) COCCCNc1nc2c([nH]1)c(=O)[nH]c(=O)n2C: > 50 µM (not active)
7) CN1CCCC(OC(=O)c2ccc3c(c2)OCCO3)C1 (configuration not stated): > 50 µM (not active)

====

- SYSTEM_NAME: UniProt:P38532
- Sequence (P38532 whole entry): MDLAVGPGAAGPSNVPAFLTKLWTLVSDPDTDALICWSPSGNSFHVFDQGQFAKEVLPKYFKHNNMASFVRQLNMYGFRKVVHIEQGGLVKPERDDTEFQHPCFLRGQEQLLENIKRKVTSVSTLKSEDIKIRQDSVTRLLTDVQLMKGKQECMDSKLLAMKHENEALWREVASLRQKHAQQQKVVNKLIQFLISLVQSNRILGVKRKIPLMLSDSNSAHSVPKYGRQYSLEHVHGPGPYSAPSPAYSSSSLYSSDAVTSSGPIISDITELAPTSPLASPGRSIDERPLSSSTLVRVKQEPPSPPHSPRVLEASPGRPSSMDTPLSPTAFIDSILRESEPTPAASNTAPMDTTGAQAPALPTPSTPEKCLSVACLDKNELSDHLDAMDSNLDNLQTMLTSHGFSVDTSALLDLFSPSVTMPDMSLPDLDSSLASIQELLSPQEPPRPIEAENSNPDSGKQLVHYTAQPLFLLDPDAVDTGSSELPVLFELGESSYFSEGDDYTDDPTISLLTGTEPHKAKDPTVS
- METHOD_NOTES: enhancement of HSF1-driven luciferase signal – cell-based, NIH3T3, luminescence, dose retest, confirmation (AID 435004);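 also: stress induced by proteasome inhibitor MG132 added 30 min after compound; luciferase reporter driven by HSF1 response element in NIH3T3 cells; actives raise luminescence as potentiators of the MG132 stress response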
- Format: functional
Active and inactive are the calls of the source.
Possible outcomes: active, inactive

1) CN1CC(C(=O)c2ccc(F)cc2)C(c2c(F)cccc2Cl)C1 (configuration not stated): inactive
2) COc1ccc2nc(SC)c(C#N)cc2c1: inactive
3) Cc1ccc2cccc(NC(=O)C(F)(F)F)c2n1: inactive
4) c1ccc(N2CC3CCc4ccccc4C3=N2)cc1 (configuration not stated): active
5) O=[N+]([O-])c1ccc(Sc2ncccn2)c([N+](=O)[O-])c1: active
6) COC(=O)c1ccc(CSc2nc3ccccc3c(=O)n2CC(C)C)o1: inactive

====

- SYSTEM_NAME: Short transient receptor potential channel 4 (Mus musculus, UniProt Q9QUQ5)
- Sequence (Q9QUQ5 whole entry): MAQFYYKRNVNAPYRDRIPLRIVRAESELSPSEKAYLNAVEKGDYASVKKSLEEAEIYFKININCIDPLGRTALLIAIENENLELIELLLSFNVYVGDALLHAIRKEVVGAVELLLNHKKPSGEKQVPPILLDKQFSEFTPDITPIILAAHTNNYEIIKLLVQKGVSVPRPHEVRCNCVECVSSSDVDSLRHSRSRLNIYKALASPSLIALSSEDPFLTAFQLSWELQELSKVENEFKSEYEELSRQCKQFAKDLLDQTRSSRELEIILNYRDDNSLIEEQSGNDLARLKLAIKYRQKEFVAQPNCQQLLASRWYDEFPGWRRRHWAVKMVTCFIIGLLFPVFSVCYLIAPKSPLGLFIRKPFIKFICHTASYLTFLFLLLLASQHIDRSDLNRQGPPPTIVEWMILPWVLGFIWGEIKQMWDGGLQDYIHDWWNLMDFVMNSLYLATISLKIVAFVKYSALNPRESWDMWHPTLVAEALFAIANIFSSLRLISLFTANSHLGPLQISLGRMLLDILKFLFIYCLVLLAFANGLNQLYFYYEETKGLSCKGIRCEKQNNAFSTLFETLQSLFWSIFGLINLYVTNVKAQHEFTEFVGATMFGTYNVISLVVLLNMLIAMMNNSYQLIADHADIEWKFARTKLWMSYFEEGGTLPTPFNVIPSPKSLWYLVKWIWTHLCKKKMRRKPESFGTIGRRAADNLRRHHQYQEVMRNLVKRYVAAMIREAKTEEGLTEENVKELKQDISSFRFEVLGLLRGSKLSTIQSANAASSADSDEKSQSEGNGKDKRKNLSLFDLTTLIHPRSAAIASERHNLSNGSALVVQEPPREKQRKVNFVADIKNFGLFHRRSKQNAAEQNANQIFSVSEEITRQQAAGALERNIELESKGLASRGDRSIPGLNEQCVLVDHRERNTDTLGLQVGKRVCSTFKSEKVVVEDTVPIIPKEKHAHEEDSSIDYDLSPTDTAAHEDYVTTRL
- METHOD_NOTES: block of DAMGO-driven TRPC4 calcium entry – cell-based, HEK293 TRPC4/mu-opioid, Fluo-4 calcium, dose response (AID 434942);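 also: potency of inhibitors blocking the TRPC4 calcium response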
- Format: functional
Activity calls are given as the source filed them.
Known EC50 of a selection of molecules
READOUT_NAME: EC50

1) NS(=O)(=O)c1ccc(CCNCc2ccccc2OCc2ccc(F)cc2)cc1: 3350 nM (active)
2) CNC(=O)COc1ccc2oc3c(c2c1)CCCC3: 1330 nM (active)
3) COC(=O)c1ccc(CSc2nc3ccccc3c(=O)n2CC(C)C)o1: 3350 nM (active)
4) CCCCNc1nc(-c2ccccc2)c(C(=O)OCC)cc1C#N: 1190 nM (active)
5) O=C(Nc1ccc(Oc2ccccc2)nc1)C1CCN(Cc2ccccc2)CC1: 2370 nM (active)
6) CCOC(=O)c1cc(C#N)c(N2CCCCC2)nc1-c1ccccc1: 3760 nM (active)

====

Known EC50 of a selection of compounds
- METHOD_NOTES: Luminescence Cell-Based Dose Confirmation HTS to Identify Inhibitors of Platelet Dense Granule Release. [Related pubchem assays: 1663 (Primary HTS), 1678 (Summary of Project)]
- Format: functional
Calls of active or inactive are those of the source.
READOUT_NAME: EC50

1. CC1(C)CC(=O)C=C(NC2=CC3OC(c4ccccc4)OCC3OC2=O)C1 (stereo not given): 14.8 µM (active)
2. O=c1c2ccccc2cnn1-c1nc2ccccc2[nH]1: 0.144 µM (active)
3. COc1cccc(/C=N/Nc2ncccc2[N+](=O)[O-])c1OC: 3.32 µM (active)
4. Cc1ccc2[nH]c(-c3ccccn3)nc2c1: 14.7 µM (active)
5. CCCc1nc2oc3c(O)ncnc3c2c2c1CCCC2: > 112 µM (not active)

====

- SYSTEM_NAME: Type-1 angiotensin II receptor (Homo sapiens, UniProt P30556)
- Sequence (P30556 whole entry): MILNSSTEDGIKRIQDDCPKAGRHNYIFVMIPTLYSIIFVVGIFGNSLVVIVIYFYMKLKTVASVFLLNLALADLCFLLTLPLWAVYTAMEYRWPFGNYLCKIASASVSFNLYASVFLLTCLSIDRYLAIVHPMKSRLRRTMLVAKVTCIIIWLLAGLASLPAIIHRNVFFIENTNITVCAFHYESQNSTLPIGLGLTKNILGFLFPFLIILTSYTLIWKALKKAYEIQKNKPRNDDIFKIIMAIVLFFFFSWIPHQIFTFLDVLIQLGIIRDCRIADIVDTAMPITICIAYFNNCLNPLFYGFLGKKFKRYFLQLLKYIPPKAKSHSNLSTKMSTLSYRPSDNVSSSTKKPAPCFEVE
- METHOD_NOTES: antagonism of angiotensin II type 1 receptor – cell-based, uHTS hits, selectivity assay for APJ receptor antagonist project, dose response (AID 463214);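 also: antagonist potency against angiotensin II stimulated AT1 response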
- Type: functional
The source made the active and inactive calls.
READOUT_NAME: IC50

1. CN(C)c1ccc2nc3c(=O)[nH]c(=O)nc-3n(CC(O)C(O)C(O)CO)c2c1 (stereo not given): 29.1 µM (not active)
2. COc1cc(/C=C/c2ccc3cccc(OC)c3n2)c(OC(C)=O)c([N+](=O)[O-])c1: 10.2 µM (active)
3. O=C(CN1C(=O)c2ccccc2C1=O)NCC(=O)OCC(=O)c1cccc([N+](=O)[O-])c1: 17.4 µM (active)
4. CN(/N=C/c1cc([N+](=O)[O-])ccc1O)c1ccccc1: > 40 µM (not active)
5. COc1ccc(NC2(c3ccc(Cl)cc3)C(=O)c3ccccc3C2=O)cc1: 17.9 µM (active)

====

- SYSTEM_NAME: UniProt Q9QUQ5
- METHOD_NOTES: calcium entry via TRPC4 opening agents – cell-based, HEK293 TRPC4/mu-opioid, Fluo-4 calcium, dose response (AID 434937)
- Assay type: functional
The source made the active and inactive calls.
READOUT_NAME: EC50

1) Cc1cccn2c(CNCCc3ccccn3)c(C(=O)N3CCOCC3)nc12: 1680 nM (active)
2) CCn1c(CN2CCN(Cc3ccc(C)cc3)C(CCO)C2)nc2ccccc21 (centres undefined): 668 nM (active)
3) CCc1cc(OCCN(C)C)ccc1Cl: 267 nM (active)
4) CCn1cc(CN2CCCC(C(=O)Nc3ccc(-c4nc5ccccc5[nH]4)cc3)C2)c(C)n1 (centres undefined): 267 nM (active)

====

- SYSTEM_NAME: Peroxisome proliferator-activated receptor gamma/Nuclear receptor coactivator 2 (Homo sapiens, UniProt P37231)
- Sequence (P37231 whole entry): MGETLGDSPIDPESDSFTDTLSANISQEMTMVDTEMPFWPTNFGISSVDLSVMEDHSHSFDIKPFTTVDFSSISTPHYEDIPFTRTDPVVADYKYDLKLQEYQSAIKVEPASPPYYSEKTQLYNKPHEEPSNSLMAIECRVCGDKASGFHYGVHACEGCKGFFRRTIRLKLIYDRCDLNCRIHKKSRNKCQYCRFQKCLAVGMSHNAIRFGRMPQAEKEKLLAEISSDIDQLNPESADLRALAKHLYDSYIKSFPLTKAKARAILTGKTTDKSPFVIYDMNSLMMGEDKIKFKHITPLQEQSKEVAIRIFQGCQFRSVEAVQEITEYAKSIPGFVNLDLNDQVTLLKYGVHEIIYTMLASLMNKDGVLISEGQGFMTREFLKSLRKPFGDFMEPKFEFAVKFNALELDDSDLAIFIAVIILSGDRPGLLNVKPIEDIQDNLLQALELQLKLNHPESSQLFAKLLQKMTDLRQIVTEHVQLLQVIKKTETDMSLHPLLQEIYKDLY
- Sequence (Q15596 whole entry, further chain): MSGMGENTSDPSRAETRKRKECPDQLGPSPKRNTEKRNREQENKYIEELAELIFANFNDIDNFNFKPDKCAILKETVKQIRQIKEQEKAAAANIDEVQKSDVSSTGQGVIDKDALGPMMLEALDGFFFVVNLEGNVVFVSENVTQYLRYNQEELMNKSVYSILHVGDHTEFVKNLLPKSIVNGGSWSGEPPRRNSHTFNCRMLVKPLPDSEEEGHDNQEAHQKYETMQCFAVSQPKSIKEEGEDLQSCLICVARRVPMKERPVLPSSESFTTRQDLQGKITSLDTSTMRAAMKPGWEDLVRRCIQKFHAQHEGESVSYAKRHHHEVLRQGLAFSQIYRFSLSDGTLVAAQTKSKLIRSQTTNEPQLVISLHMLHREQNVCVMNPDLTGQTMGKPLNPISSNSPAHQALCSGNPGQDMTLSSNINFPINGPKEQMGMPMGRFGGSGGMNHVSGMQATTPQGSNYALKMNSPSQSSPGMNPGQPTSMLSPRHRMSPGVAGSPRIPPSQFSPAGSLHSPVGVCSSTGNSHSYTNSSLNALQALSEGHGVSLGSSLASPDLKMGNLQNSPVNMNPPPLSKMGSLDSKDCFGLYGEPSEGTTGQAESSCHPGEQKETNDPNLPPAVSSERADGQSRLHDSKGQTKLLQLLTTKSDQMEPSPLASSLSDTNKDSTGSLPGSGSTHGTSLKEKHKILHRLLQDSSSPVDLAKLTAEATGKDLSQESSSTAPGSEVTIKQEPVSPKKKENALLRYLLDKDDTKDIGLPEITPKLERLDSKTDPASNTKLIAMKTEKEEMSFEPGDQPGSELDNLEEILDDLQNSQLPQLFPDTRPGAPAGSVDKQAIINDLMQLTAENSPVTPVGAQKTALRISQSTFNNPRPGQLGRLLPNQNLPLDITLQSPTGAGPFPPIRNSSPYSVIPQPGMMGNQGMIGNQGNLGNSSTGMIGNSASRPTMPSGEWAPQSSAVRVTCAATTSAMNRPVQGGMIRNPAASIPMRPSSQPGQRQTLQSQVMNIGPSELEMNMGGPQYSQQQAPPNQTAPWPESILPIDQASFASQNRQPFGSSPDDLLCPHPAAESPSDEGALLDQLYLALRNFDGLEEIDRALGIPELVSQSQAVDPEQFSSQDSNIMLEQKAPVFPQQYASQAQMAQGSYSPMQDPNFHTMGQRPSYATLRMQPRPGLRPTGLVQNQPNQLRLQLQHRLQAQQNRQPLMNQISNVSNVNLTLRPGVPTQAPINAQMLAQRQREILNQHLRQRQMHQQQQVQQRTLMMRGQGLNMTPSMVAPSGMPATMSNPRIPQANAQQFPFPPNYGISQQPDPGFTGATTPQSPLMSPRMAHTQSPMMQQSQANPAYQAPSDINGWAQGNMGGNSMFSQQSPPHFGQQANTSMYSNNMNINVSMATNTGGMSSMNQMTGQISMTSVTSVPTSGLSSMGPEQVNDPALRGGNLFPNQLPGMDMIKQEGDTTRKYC
- METHOD_NOTES: TR-FRET dose response biochemical High Throughput Screening assay for agonists of the steroid receptor coactivator 2 (SRC-2) recruitment by the peroxisome proliferator-activated receptor gamma (PPAR gamma): non-selective agonists. [Related pubchem assays: 1297, 1032 ]
- Format: functional
Known EC50 of a selection of molecules
READOUT_NAME: EC50

1. CCCCOC(=O)C(C)Nc1n[nH]c(=S)[nH]c1=O (stereo not given): 16.3 µM (not active)
2. CC(=O)/N=c1\sc2nc3ccccc3nc2n1N(C(C)=O)C(C)=O: 22.9 µM (not active)
3. COc1ccc2nc(SC)c(C#N)cc2c1: 12.3 µM (not active)
4. Cc1onc(-c2ccccc2Cl)c1C(=O)Nc1nnc(-c2ccc(Br)cc2)s1: 45 µM (not active)
5. O=C(Nc1nc(-c2ccc(S(=O)(=O)N3CCCCCC3)cc2)cs1)c1ccccc1: 15.8 µM (not active)

Entry source: ChEMBL document CHEMBL1201862
